Recorded values, source the supplement of paper PMC4858399.

# System: Caenorhabditis elegans N2
# PROTOCOL DESCRIPTION: mean nematode size ln(EXT) after 48 h, plate-adjusted (DMSO control set to 6) (ln(EXT), control-adjusted); higher = larger nematodes / less growth inhibition
# CONDITIONS USED: 200 µM; exposure time 48 h
Where a name gives a salt, the structure may show the parent alone.
QUANTITY KIND: mean nematode size ln(EXT) (ln)

compound=O=C(O)c1cccc(Oc2ccccc2)c1 quantity_kind="mean nematode size ln(EXT) (ln)" numeric_readout=5.91
compound=C[C@]12CCC(=O)C=C1CC[C@@H]1[C@@H]2CC[C@]2(C)C(=O)CC[C@@H]12 quantity_kind="mean nematode size ln(EXT) (ln)" numeric_readout=5.66
compound="CCC/C(=N\\OCC)C1=C(O)CC(CC(C)SCC)CC1=O (stereo not drawn)" quantity_kind="mean nematode size ln(EXT) (ln)" numeric_readout=3.35
compound="CC(CO)OC(C)CO.CC(O)COCC(C)O (stereo not drawn)" quantity_kind="mean nematode size ln(EXT) (ln)" numeric_readout=5.87
compound="CN(C)c1ccc(C(=C2C=CC(=[N+](C)C)C=C2)c2ccc(N(C)C)cc2)cc1 [Hexamethyl-p-rosaniline chloride]" quantity_kind="mean nematode size ln(EXT) (ln)" numeric_readout=4.02
compound=COC(=O)N(C(=O)N1CO[C@@]2(C(=O)OC)Cc3cc(Cl)ccc3C2=N1)c1ccc(OC(F)(F)F)cc1 quantity_kind="mean nematode size ln(EXT) (ln)" numeric_readout=3.48
compound=COCCOCCO quantity_kind="mean nematode size ln(EXT) (ln)" numeric_readout=5.68
compound="C=CC(=O)OCCCCCC(C)C [Isooctyl acrylate]" quantity_kind="mean nematode size ln(EXT) (ln)" numeric_readout=5.52
compound=O=C(Nc1ccccc1)Nc1cnns1 quantity_kind="mean nematode size ln(EXT) (ln)" numeric_readout=4.8
compound=O=P(O)(O)CCCl quantity_kind="mean nematode size ln(EXT) (ln)" numeric_readout=5.88
compound="CCCN(CC)CC1COC2(CCC(C(C)(C)C)CC2)O1 (stereo not drawn)" quantity_kind="mean nematode size ln(EXT) (ln)" numeric_readout=3.97
compound="CN(Cc1cnc2nc(N)nc(N)c2n1)c1ccc(C(=O)N[C@@H](CCC(=O)O)C(=O)O)cc1 [Methotrexate]" quantity_kind="mean nematode size ln(EXT) (ln)" numeric_readout=5.75
compound=C=C(C)CN(CC)c1c([N+](=O)[O-])cc(C(F)(F)F)cc1[N+](=O)[O-] quantity_kind="mean nematode size ln(EXT) (ln)" numeric_readout=4.85
compound="C=CC(=O)NCNC(=O)C=C [N,N'-Methylenebis(acrylamide)]" quantity_kind="mean nematode size ln(EXT) (ln)" numeric_readout=5.83
compound="O=C(Nc1ccc([N+](=O)[O-])cc1Cl)c1cc(Cl)ccc1O [Niclosamide]" quantity_kind="mean nematode size ln(EXT) (ln)" numeric_readout=5.59
compound=CCOP(=S)(OCC)Oc1cc(C)nc(C(C)C)n1 quantity_kind="mean nematode size ln(EXT) (ln)" numeric_readout=3.6
compound="O=NO [Sodium nitrite]" quantity_kind="mean nematode size ln(EXT) (ln)" numeric_readout=5.75
compound="O=P1(N(CCCl)CCCl)NCCCO1 (stereo not drawn) [Cytoxan hydrate]" quantity_kind="mean nematode size ln(EXT) (ln)" numeric_readout=5.93
compound=Nc1ccc(C(=O)O)cc1 quantity_kind="mean nematode size ln(EXT) (ln)" numeric_readout=5.72
compound="COc1ccc(C(=O)Nc2nc3ccccc3c(NCc3ccccc3)c2C#N)cc1 [N-[4-(benzylamino)-3-cyanoquinolin-2-yl]-4-methoxybenzamide]" quantity_kind="mean nematode size ln(EXT) (ln)" numeric_readout=4.46
compound=Fc1ccccc1[C@@H](F)CO[C@H]1CC[C@H](Nc2[nH]cnc3nncc2-3)CC1 quantity_kind="mean nematode size ln(EXT) (ln)" numeric_readout=5.4
compound=Nc1ccc(Oc2ccc(N)cc2)cc1 quantity_kind="mean nematode size ln(EXT) (ln)" numeric_readout=5.39
compound="OC12N=C(c3ccccc3)SC1Cc1cc(Cl)ccc12 (stereo not drawn)" quantity_kind="mean nematode size ln(EXT) (ln)" numeric_readout=3.96
compound="CCOP(=S)(OCC)OC(Cl)C(Cl)(Cl)Cl (stereo not drawn)" quantity_kind="mean nematode size ln(EXT) (ln)" numeric_readout=3.42
compound="CCCCOC(=O)c1ccccc1C(=O)OCc1ccccc1 [Butyl benzyl phthalate]" quantity_kind="mean nematode size ln(EXT) (ln)" numeric_readout=5.67
compound=CCOC(=O)O[C@H](C)OC(=O)c1ccc2c(c1)cc(C(=O)NC1CCN(C(C)C)CC1)n2Cc1cc(-c2ccc(Cl)s2)on1 quantity_kind="mean nematode size ln(EXT) (ln)" numeric_readout=3.71
compound=Nc1cc2c3c(c1)C(c1ccccc1)=N[C@@H](NC(=O)c1cccnc1)C(=O)N3CC2 quantity_kind="mean nematode size ln(EXT) (ln)" numeric_readout=5.61
compound=CN(C)C(=O)Nc1ccc(Cl)c(Cl)c1 quantity_kind="mean nematode size ln(EXT) (ln)" numeric_readout=5.16
compound="O=S(=O)(O)C(F)(F)C(F)(F)C(F)(F)C(F)(F)C(F)(F)C(F)(F)C(F)(F)C(F)(F)F [Heptadecafluorooctanesulfonic acid potassium salt]" quantity_kind="mean nematode size ln(EXT) (ln)" numeric_readout=3.47
compound=Clc1nc(Cl)nc(Nc2ccccc2Cl)n1 quantity_kind="mean nematode size ln(EXT) (ln)" numeric_readout=5
compound="CN(C)C(=O)C1(N2CCCCC2)CCN(CCC2(c3ccc(Cl)c(Cl)c3)CN(C(=O)c3ccccc3)CCO2)CC1 (stereo not drawn)" quantity_kind="mean nematode size ln(EXT) (ln)" numeric_readout=4.06
compound="COc1cc(OC)nc(Sc2cccc(Cl)c2C(=O)O)n1 [Pyrithiobac-sodium]" quantity_kind="mean nematode size ln(EXT) (ln)" numeric_readout=5.69
compound="CCCCOC(=O)C(C)Oc1ccc(Oc2ccc(C(F)(F)F)cn2)cc1 (stereo not drawn)" quantity_kind="mean nematode size ln(EXT) (ln)" numeric_readout=4.66
compound=CCOP(=O)(OCC)Oc1cc(C)nc(C(C)C)n1 quantity_kind="mean nematode size ln(EXT) (ln)" numeric_readout=5.93
compound=CCOc1ccc2[nH]cc(C(=O)NCc3ccccc3)c(=O)c2n1 quantity_kind="mean nematode size ln(EXT) (ln)" numeric_readout=5.63
compound="CC(=O)CC(c1ccccc1)c1c(O)c2ccccc2oc1=O (stereo not drawn)" quantity_kind="mean nematode size ln(EXT) (ln)" numeric_readout=5.59
compound=CCCCCCOCCO quantity_kind="mean nematode size ln(EXT) (ln)" numeric_readout=5.77
compound="Oc1ccc(O)cc1 [Hydroquinone]" quantity_kind="mean nematode size ln(EXT) (ln)" numeric_readout=5.72

###

Quick reference for mean nematode size ln(EXT) (ln) among some compounds
# Tested on: Caenorhabditis elegans N2
# PROTOCOL DESCRIPTION: mean nematode size ln(EXT) after 48 h, plate-adjusted (DMSO control set to 6) (ln(EXT), control-adjusted); higher = larger nematodes / less growth inhibition
# CONDITIONS USED: 10 µM; exposure time 48 h
QUANTITY KIND: mean nematode size ln(EXT) (ln)

compound="Clc1ccc(C(Cl)(Cl)Cl)cc1 [4-Chlorobenzotrichloride]" test_target="Caenorhabditis elegans N2" numeric_readout=5.9
compound="CCOC(=O)c1ccc(C2CCC(NC[C@H](O)COc3ccc(O)c(NS(C)(=O)=O)c3)CC2)cc1 (stereo not given in full)" test_target="Caenorhabditis elegans N2" numeric_readout=5.77
compound=O=C(Nc1ccc2[nH]ccc2c1)c1cc2cc(F)ccc2n1Cc1cccc(F)c1 test_target="Caenorhabditis elegans N2" numeric_readout=3.83
compound=Nc1ccc(Cl)cc1N test_target="Caenorhabditis elegans N2" numeric_readout=5.85
compound="Oc1cccc2cccnc12 [8-Hydroxyquinoline]" test_target="Caenorhabditis elegans N2" numeric_readout=5.83
compound=CCO[Si](CCCNC(N)=O)(OCC)OCC test_target="Caenorhabditis elegans N2" numeric_readout=5.8
compound="CCC(C)OC(=O)N1CCCCC1CCO (stereo not given)" test_target="Caenorhabditis elegans N2" numeric_readout=6.03
compound="CCN(CC)C(=O)c1cccc(C)c1 [Diethyltoluamide]" test_target="Caenorhabditis elegans N2" numeric_readout=6.14
compound=CN(C)c1ccc(C(=O)c2ccc(N(C)C)cc2)cc1 test_target="Caenorhabditis elegans N2" numeric_readout=5.78
compound="O=c1[nH]c2ccc([S+]([O-])CCN3CCC(Cc4ccc(F)cc4)CC3)cc2o1 (stereo not given)" test_target="Caenorhabditis elegans N2" numeric_readout=5.9

###

# Tested on: Caenorhabditis elegans N2
# PROTOCOL DESCRIPTION: mean nematode size ln(EXT) after 48 h, plate-adjusted (DMSO control set to 6) (ln(EXT), control-adjusted); higher = larger nematodes / less growth inhibition
# CONDITIONS USED: 0.5 µM; exposure time 48 h
Counter-ions that a name gives are not always drawn.
Quick reference for mean nematode size ln(EXT) (ln) among some compounds
QUANTITY KIND: mean nematode size ln(EXT) (ln)

compound="CC(Oc1cccc(Cl)c1)C(=O)O (stereo not given)" numeric_readout=5.97
compound="[Cl][Hg][Cl] [Mercuric chloride]" numeric_readout=5.91
compound="CCCCCCOC(=O)CC(CC(=O)OCCCCCC)(OC(=O)CCC)C(=O)OCCCCCC [N-Butyryl tri-N-hexyl citrate]" numeric_readout=5.93
compound=CC(C)N(C(=O)COc1nnc(C(F)(F)F)s1)c1ccc(F)cc1 numeric_readout=5.91
compound=CCCCCC/C(C=O)=C\c1ccccc1 numeric_readout=5.84
